# reported CC50; entries follow
assay: Cytotoxicity, MTT method, BHK cells; conditions: Syrian hamster (Mesocricetus auratus)

O=C(Nc1ccc(Cl)cc1)Nc1ccc(-n2nc3cc(Cl)c(Cl)cc3n2)cc1 [10h]: > 100 µM
CCNC(=O)Nc1ccc(-n2nc3cc(Cl)c(Cl)cc3n2)cc1 [10a]: > 100 µM
Cc1ccc(C(=O)Nc2ccc(-n3nnc4cc(Cl)c(Cl)cc43)cc2)cc1: > 100 µM

Input line: Look up CC50 for this compound: CCCC(=O)Nc1ccc(-n2nnc3cc(Cl)c(Cl)cc32)cc1
Output line: > 100 µM

Input line: Form field: reported CC50 of O=C(Nc1ccc(-n2nc3cc(Cl)c(Cl)cc3n2)cc1)Nc1cccc2ccccc12 [10k]
Output line: > 100 µM

----------
Parameter EC50: see the listing below.
system: RSV; test: microbe, parasite or virus in culture; assay type: cell-based, Human Respiratory Syncytial Virus (RSV) strain A2; conditions: human respiratory syncytial virus, Vero 76, read-out: EC50 RSV

Solved cases below.
CCCC(=O)Nc1ccc(-n2nc3cc(Cl)c(Cl)cc3n2)cc1 [6c]: > 100 µM
COc1ccc(C(=O)Nc2ccc(-n3nc4cc(Cl)c(Cl)cc4n3)cc2)cc1 [8c]: > 100 µM

Now for a further compound.
Input line: Requested field: EC50. Item: O=C(Nc1ccccc1)Nc1ccc(-n2nc3cc(Cl)c(Cl)cc3n2)cc1 [10e]
Output line: > 100 µM

----------
experiment: Cytotoxicity, MTT method, BHK cells; conditions: Syrian hamster (Mesocricetus auratus)
READOUT TYPE: CC50

O=C(Nc1ccc(-n2nc3cc(Cl)c(Cl)cc3n2)cc1)c1ccc(C(F)(F)F)cc1 [8g]: > 100 µM

Input line: Looking for the measured CC50 of O=C(NCc1ccccc1)Nc1ccc(-n2nc3cc(Cl)c(Cl)cc3n2)cc1 [10j] , can you help?
Output line: > 100 µM

Input line: # input compound: CC(=O)Nc1ccc(-n2nnc3cc(Cl)c(Cl)cc32)cc1 [5a] ; wanted: its CC50
Output line: 53 µM

Input line: What does the record list as CC50 for Nc1ccc(-n2nnc3cc(Cl)c(Cl)cc32)cc1 [1a] ?
Output line: > 100 µM

----------
assay: Cytotoxicity, MTT method, BHK cells; settings: Syrian hamster (Mesocricetus auratus)
READOUT TYPE: CC50

CCCC(=O)Nc1ccc(-n2nc3cc(Cl)c(Cl)cc3n2)cc1: > 100 µM
O=C(Nc1ccc(-n2nnc3cc(Cl)c(Cl)cc32)cc1)c1ccc(C(F)(F)F)cc1: > 100 µM
CC(=O)Nc1ccc(-n2nc3cc(Cl)c(Cl)cc3n2)cc1: > 100 µM
O=C(Nc1ccc(F)cc1)Nc1ccc(-n2nc3cc(Cl)c(Cl)cc3n2)cc1 [10i]: > 100 µM

Input line: Quick one: CC50 of CCCNC(=O)Nc1ccc(-n2nc3cc(Cl)c(Cl)cc3n2)cc1 [10b] ?
Output line: 40 µM

Input line: Quick check: CC50 of Nc1ccc(-n2nc3cc(Cl)c(Cl)cc3n2)cc1 ?
Output line: > 100 µM

Input line: Which CC50 is reported for this compound? CCC(=O)Nc1ccc(-n2nnc3cc(Cl)c(Cl)cc32)cc1
Output line: 54 µM

Input line: For the compound shown here, O=C(Nc1ccc(-n2nnc3cc(Cl)c(Cl)cc32)cc1)c1ccc([N+](=O)[O-])cc1 , give the reported CC50.
Output line: 96 µM

Input line: I would be grateful if you could share the reported CC50 for CCC(=O)N(C(=O)CC)c1ccc(-n2nc3cc(Cl)c(Cl)cc3n2)cc1 .
Output line: 26 µM

Input line: Returns the measured CC50 for the input compound. Input: N#Cc1ccc(C(=O)Nc2ccc(-n3nc4cc(Cl)c(Cl)cc4n3)cc2)cc1
Output line: > 100 µM

Input line: Using the record for CCCC(=O)N(C(=O)CCC)c1ccc(-n2nc3cc(Cl)c(Cl)cc3n2)cc1 , report its CC50.
Output line: 62 µM

Input line: Any idea what CC50 was measured for O=C(Nc1ccc(-n2nnc3cc(Cl)c(Cl)cc32)cc1)c1ccc(Cl)cc1 ?
Output line: 84 µM

Input line: // lookup CC50 for COc1ccc(NC(=O)Nc2ccc(-n3nc4cc(Cl)c(Cl)cc4n3)cc2)cc1 [10g]
Output line: > 100 µM

Input line: Query: CC50; subject: O=C(Nc1ccc(-n2nc3cc(Cl)c(Cl)cc3n2)cc1)c1ccccc1
Output line: > 100 µM
